Conditions: in methyl acetate, 323.15 K
Outcome measure: solubility (mole fraction)
# output: bare number, no unit

Lab note: NC(=O)Cc1ccc(O)cc1 gave solubility (mole fraction) of 0.0118

====

Details: in methyl acetate, 298.15 K
Outcome measure: solubility (mole fraction)
// return just the number, without any unit appended

The compound listed as NC(=O)Cc1ccc(O)cc1 shows solubility (mole fraction) equal to 0.00577

====

Conditions: in methanol, 293.15 K
Outcome measure: solubility (mole fraction)
// no unit, no text: just the number

Kindly note the recorded solubility (mole fraction) for NC(=O)Cc1ccc(O)cc1 , which is 0.0111

====

Conditions: in n-propanol, 293.15 K
Outcome measure: solubility (mole fraction)
Respond numerically, and do not add a unit to the figure.

Reported solubility (mole fraction) of NC(=O)Cc1ccc(O)cc1 : 0.0035
